In this section, each of the compounds is paired with its reported TGI.
System: A549 NSCLC
protocol summary: NCI tumour cell line growth inhibition, 48 h
observable: TGI

>>> measured_value("CCOc1ccc2c(-c3ccnc(Nc4cc(OC)cc(C(F)(F)F)c4)n3)cnn2n1")
"> 25 µM"
>>> measured_value("c1ccc(-c2nn3c(c2-c2ccnc4cc(OCCN5CCOCC5)ccc24)CCC3)nc1")
"> 100 µM"
>>> measured_value("COc1cc2cc(C(=O)N3CC(COS(C)(=O)=O)c4ccc(NC(=O)OCc5ccccc5)cc43)[nH]c2c(OC)c1OC (stereo not given)")
"> 100 µM"
>>> measured_value("O=c1c2c([nH]c3nccn13)CCC2")
"> 10 µM"
>>> measured_value("O=C1CCc2c(sc3[nH]c(=S)n(-c4cc(C(F)(F)F)cc(C(F)(F)F)c4)c(=O)c23)C1")
"11.3 µM"
